Where these numbers come from: paper PMC3961306

Give measured %-inhibition of PDGFRβ for each item. Keep answers brief.
MEASUREMENT TARGET: panel of more than 300 wild-type and mutant kinases (313 kinase panel) (Homo sapiens)
EXPERIMENTAL DETAILS: Kinase profiling in a biochemical assay panel (mobility shift assays and ELISA), %-inhibition at 1 μM; selectivity entropy
CONDITION LABEL: kinase PDGFRβ; 1 μM
One number for each entry, in %.

COc1cc(Nc2c(C#N)cnc3cc(OCCCN4CCN(C)CC4)c(OC)cc23)c(Cl)cc1Cl [bosutinib] :: 95

Please supply %-inhibition of PDGFRβ for each of the following items, keeping them in order.
1. O=S(=O)(c1cccc2cnccc12)N1CCCNCC1 [fasudil]
2. Cc1ccc(C(=O)Nc2ccc(CN3CCN(C)CC3)c(C(F)(F)F)c2)cc1C#Cc1cnc2cccnn12 [ponatinib]
3. COc1cc2nccc(Oc3ccc(NC(=O)C4(C(=O)Nc5ccc(F)cc5)CC4)cc3)c2cc1OC [cabozantinib]

Result:
12
102
84
